# Measurement Target: UniProt P08173
# Sequence (P08173 whole entry): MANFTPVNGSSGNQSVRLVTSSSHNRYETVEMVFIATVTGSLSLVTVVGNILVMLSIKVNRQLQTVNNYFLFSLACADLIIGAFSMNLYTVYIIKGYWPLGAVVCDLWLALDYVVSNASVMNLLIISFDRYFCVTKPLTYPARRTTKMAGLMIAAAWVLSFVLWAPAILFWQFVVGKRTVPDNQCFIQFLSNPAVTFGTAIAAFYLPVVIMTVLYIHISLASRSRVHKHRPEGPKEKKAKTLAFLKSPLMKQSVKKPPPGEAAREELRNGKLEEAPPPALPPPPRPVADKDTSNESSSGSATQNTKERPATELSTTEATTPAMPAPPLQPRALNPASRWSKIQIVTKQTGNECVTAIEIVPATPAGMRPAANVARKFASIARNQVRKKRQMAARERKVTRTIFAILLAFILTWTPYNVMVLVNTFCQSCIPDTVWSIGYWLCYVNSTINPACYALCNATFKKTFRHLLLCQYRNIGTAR
# Assay Overview: Human M4 PAM PERK assay (CHO cells, TR-FRET, with EC20 acetylcholine)
Some compounds, each annotated with its measured EC50.

Example results:
Cc1cc(=O)n(C)c2c1CN(C(=O)CC1CN(c3nc(C4CC4)ns3)C1)C2
50 to 200 nM
Cc1c2c(n(C)c(=O)c1C)CN(C(=O)CC1CN(c3cnc(C4CC4)cn3)C1)C2
50 to 200 nM

Please list EC50 recorded for the compound `Cc1c2c(n(C)c(=O)c1Cl)CN(C(=O)CC1CN(c3ncns3)C1)C2` < 50 nM

Please list EC50 recorded for the compound `Cc1cc(=O)n(C)c2c1CN(C(=O)CC1CN(c3ccc(OC(F)(F)F)cc3)C1)C2` 200 to 1000 nM

Please list EC50 recorded for the compound `Cc1c2c(n(C)c(=O)c1C)CN(C(=O)CC1CN(c3ccc(C(F)(F)F)cc3)C1)C2` 50 to 200 nM

Please list EC50 recorded for the compound Cc1c2c(n(C)c(=O)c1Cl)CN(C(=O)C(C)C1CN(c3ccnc(C(F)(F)F)c3)C1)C2 (single isomer, unassigned) [Compound I-82] > 1000 nM

Please list EC50 recorded for the compound `Cc1cc(=O)n(C)c2c1CN(C(=O)CC1CN(c3cccnc3)C1)C2` 50 to 200 nM

Please list EC50 recorded for the compound `Cc1c2c(n(C)c(=O)c1Cl)CN(C(=O)CC1CN(c3ccnnc3)C1)C2` < 50 nM
